system: PRKG1; conditions: concentration: 1 μM,replicates: in singlicate; n = 1;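 note: KINOMEscan kinase panel screen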
In plain terms, low %Inh, meaning strictly below 9%, gives Satisfied, and everything else gives Not satisfied.

| compound | label |
| --- | --- |
| Cc1nnc(-c2ccc3occ(-c4ccc(S(C)=O)cc4)c3n2)o1 (stereo not drawn) | Satisfied |
| Cl.Cl.NC[C@H](CC1CCCCC1)NC(=O)c1ccc(-c2ccnc3[nH]ccc23)s1 [GSK1581428] | Not satisfied |
| CN(c1cccc(CNc2nc(Nc3ccc4c(c3)CC(=O)N4)ncc2C(F)(F)F)c1)S(C)(=O)=O | Satisfied |
| O=C1NCCc2[nH]c(-c3ccncc3)cc21 | Not satisfied |
| Cn1ccc2ncnc(Oc3ccc(NC(=O)Nc4cccc(C(F)(F)F)c4)c(F)c3)c21 | Not satisfied |
| O=C(Nc1ccc(Oc2ccc3nc(NC(=O)C4CC4)cn3n2)c(F)c1)c1cccn(-c2ccccc2)c1=O | Not satisfied |
| COc1cc2nccc(Nc3ccc(Oc4ccccc4)cc3)c2cc1OC.Cl [GI261656] | Satisfied |
| COc1ccc(Nc2nccc(N3CCC(NC(=O)c4cccc(C#N)c4)C3)n2)cc1 (stereo not drawn) [GSK1379730] | Not satisfied |

###

system: CASK; conditions: concentration: 1 μM,replicates: in singlicate; n = 1
Each entry gets condition not met if its %Inh stays under 3%, and condition met if its %Inh is 3% or above.

| compound | label |
| --- | --- |
| COc1ccc(Nc2nccc(N3CCC(NC(=O)c4cccc(C#N)c4)C3)n2)cc1 (stereo not drawn) [GSK1379730] | condition not met |
| NC(=O)Nc1sc(-c2ccc(F)cc2)cc1C(N)=O [GW789449] | condition met |
| CCNCC(Cc1ccccc1)NC(=O)c1cc(Br)c(-c2ccnc3[nH]ccc23)s1.Cl.Cl (stereo not drawn) [GSK1383280] | condition not met |
| FC(F)(F)c1cc(Br)cc(Nc2nccc(-c3cnn4ncccc34)n2)c1 [GW810578] | condition met |
| Cn1ccc2ncnc(Oc3ccc(NC(=O)Nc4ccnc(C(F)(F)F)c4)c(Cl)c3)c21 | condition not met |
| Cl.Nc1n[nH]c2cc(-c3ccccn3)ccc12 [GSK2189892] | condition not met |
| CC(=O)Nc1ccc(-c2cc3ncnc(SCC(=O)O)c3s2)cc1 | condition met |
| Cn1ccc2ncnc(Oc3ccc(NC(=O)Nc4cncc(C(F)(F)F)c4)c(Cl)c3)c21 | condition not met |
| Cn1ccc2ncnc(Oc3ccc(NC(=O)Nc4cc(C(C)(C)C)on4)c(Cl)c3)c21 | condition not met |
| CS(=O)(=O)c1cccc(CNc2nc(Nc3ccc4c(c3)[C@@H]3C[C@@H]4CNC3=O)ncc2C(F)(F)F)c1 | condition not met |
| C[C@@H](Oc1cc(-n2cnc3cc(-c4ccncc4)ccc32)sc1C(N)=O)c1ccccc1Cl [GSK479719] | condition met |
| COc1cc2c(Nc3ccc(NC(=O)c4ccccc4)cc3)ncnc2cc1OCCCN1CCOCC1 [GSK301329] | condition met |
| O=C(Nc1cccc(Oc2ccc3nccn3n2)c1)Nc1cccc(C(F)(F)F)c1 | condition met |
| CC(C)S(=O)(=O)N1CCN(Cc2ccc3c(c2)nc(NC(=O)c2ccsc2)n3C[C@H](O)c2ccccc2)CC1 [GW635815] | condition met |
| Cc1cccc(-c2nc(Nc3ccncc3)c3sccc3n2)n1 [GW869641] | condition met |
| CCN1CCN(CCCC(=O)Nc2n[nH]c3nc(-c4ccc(O)cc4)c(Br)cc23)CC1 [SB-731579] | condition not met |
| CC(=O)Nc1nc2cnc(Nc3cc(NC(=O)c4cccc(CC(C)(C)C#N)c4)ccc3C)nc2s1 | condition not met |
| CS(=O)(=O)Nc1ccc(-c2ccnc3[nH]ccc23)cc1 [GSK993273] | condition met |
| Cn1ccc2ncnc(Oc3ccc(NC(=O)Nc4cnn(C(C)(C)C)c4)c(Cl)c3)c21 | condition met |
| O=C1NCCc2[nH]c(-c3ccncc3)cc21 | condition not met |
| COC(=O)c1cccc(NC(=O)NC2CCN(c3ccnc(Nc4cc(OC)c(OC)c(OC)c4)n3)C2)c1 (stereo not drawn) [GSK1379767] | condition not met |
| N#Cc1cccc(C(=O)NC2CCN(c3ccnc(Nc4ccc(F)cc4)n3)C2)c1 (stereo not drawn) [GSK1379708] | condition met |
| COc1cc2nccc(Nc3ccc(Oc4ccccc4)cc3)c2cc1OC.Cl [GI261656] | condition not met |
| CSc1nccc(-c2c(-c3ccc(F)cc3)ncn2CCCN2CCOCC2)n1.Cl [SB-217146] | condition not met |
| Cc1ccc(CC(=O)N2CCc3cc(-c4cn(C)c5ncnc(N)c45)ccc32)cc1 [GSK2634758] | condition met |

###

tested on: PRKCH; details: concentration: 1 μM,replicates: in singlicate; n = 1

| molecule | targetDesc | %Inh |
| --- | --- | --- |
| CSc1nccc(-c2c(-c3ccc(F)cc3)ncn2CCCN2CCOCC2)n1.Cl | PRKCH | 0% |
| COC(=O)c1cccc(NC(=O)NC2CCN(c3ccnc(Nc4cc(OC)c(OC)c(OC)c4)n3)C2)c1 (centres unmarked) | PRKCH | 7% |
| c1ccc(Oc2ccc(Nc3ccnc4ccc(-c5ccccn5)cc34)cc2)cc1 | PRKCH | 0% |
| OCCn1cc(-c2cnc3nnn(Cc4ccc5ncccc5c4)c3n2)cn1 | PRKCH | 0% |
| CCn1c(-c2nonc2N)nc2cncc(Br)c21 | PRKCH | 58% |
| CCNCC(Cc1ccccc1)NC(=O)c1cc(Br)c(-c2ccnc3[nH]ccc23)s1.Cl.Cl (centres unmarked) | PRKCH | 93.1% |
| CCn1c(-c2nonc2N)nc2cncc(CNC3CCNCC3)c21.Cl | PRKCH | 89% |
| Cc1ccc(CC(=O)N2CCc3cc(-c4cn(C)c5ncnc(N)c45)ccc32)cc1 | PRKCH | 35% |

###

test system: PKN1; conditions: concentration: 1 μM,replicates: in singlicate; n = 1
# maps each entry to its %Inh

| smiles | %Inh |
| --- | --- |
| Cl.Nc1n[nH]c2cc(-c3ccccn3)ccc12 | 10% |
| Cn1cc(-c2cccc3c(N)c(C(N)=O)nnc23)cn1 | 0% |
| Cc1ccn2nc(-c3ccc(F)cc3)c(-c3ccncc3)c2c1.Cl | 0% |
| COC(=O)c1cccc(NC(=O)NC2CCN(c3ccnc(NCc4ccc(F)cc4)n3)CC2)c1 | 32% |
| Cn1ccc2ncnc(Oc3ccc(NC(=O)Nc4ccnc(C(F)(F)F)c4)c(Cl)c3)c21 | 0% |

###

system: CLK3; conditions: concentration: 1 μM,replicates: in singlicate; n = 1
%Inh of 10% or higher: Condition met. Under 10%: Condition not met.

| compound | label |
| --- | --- |
| CCn1c(-c2nonc2N)nc2cncc(CNC3CCNCC3)c21.Cl | Condition not met |
| CC(C)S(=O)(=O)N1CCN(Cc2ccc3c(c2)nc(NC(=O)c2ccsc2)n3C[C@H](O)c2ccccc2)CC1 | Condition met |
| COC(=O)Nc1nc2cc(Oc3ccc(NC(=O)Nc4cc(C(F)(F)F)ccc4Cl)cc3)ccc2[nH]1.Cl | Condition met |
| Cn1ccc2ncnc(Oc3ccc(NC(=O)Nc4cncc(C(F)(F)F)c4)c(Cl)c3)c21 | Condition not met |
| CCN1CCN(CCCC(=O)Nc2n[nH]c3nc(-c4ccc(O)cc4)c(Br)cc23)CC1 | Condition met |
| Cn1ccc2ncnc(Oc3ccc(NC(=O)Nc4cccc(C(F)(F)F)c4)c(F)c3)c21 | Condition not met |
| CS(=O)c1ccc(-c2coc3ccc(-c4n[nH]c(=O)o4)cc23)cc1 (stereo not drawn) | Condition not met |
| CC(=O)Nc1ccc(-c2cc3ncnc(SCC(=O)O)c3s2)cc1 | Condition not met |
| C[C@@H]1CCN(C(=O)N2CCCC2)C[C@@H]1N(C)c1ncnc2[nH]ccc12 | Condition not met |
| CN(c1ccccc1CNc1nc(Nc2ccc3c(c2)CC(=O)N3)ncc1C(F)(F)F)S(C)(=O)=O | Condition met |
| CNC(=O)c1ccccc1Nc1nc(Nc2cccc(CS(C)(=O)=O)c2)ncc1C.O=CO | Condition met |
| COc1cc2nccc(Nc3ccc(Oc4ccccc4)cc3)c2cc1OC.Cl | Condition not met |
| Cc1cccc2c(-c3ccncc3)c(-c3ccc(F)cc3)nn12.Cl | Condition not met |
| Cl.c1ccc(Oc2ccc(Nc3ccnc4cc(-c5ccc(CN6CCNCC6)o5)ccc34)cc2)nc1 | Condition met |
| Cc1ccc(C(=O)Nc2ccc(Oc3ccc4nc(NC(=O)C5CC5)cn4c3)c(F)c2)c(=O)n1-c1ccccc1 | Condition not met |
| CC(C(=O)NC1CCN(c2ccnc(Nc3ccc(F)cc3)n2)C1)c1ccc(Cl)cc1 (stereo not drawn) | Condition not met |
| COc1cccc(OC)c1C(=O)Nc1cccc(-c2nn3ccccc3c2-c2ccnc(Nc3cccc(F)c3)n2)c1 | Condition not met |
